Where do these numbers come from? They come from ChEMBL document CHEMBL4742400.

Organism: Homo sapiens
Assay Method Text: Selectivity index, ratio of inhibition of full length human JNK1 (M1 to Q384 residues) expressed in mammalian expression system assessed as residual percent of control binding at 100 nM relative to control to inhibition of partial length human MKK4 (S84 to D399 residues) expressed in mammalian expression system assessed as residual percent of control binding at 100 nM relative to control
I'd appreciate it if you could supply Selectivity ratio values for the items below.
Give bare numbers.

Some compounds with known Selectivity ratio results, for comparison:
# Compound Structure, Selectivity ratio
records = [
    ("CCCS(=O)(=O)Nc1ccc(F)c(C(=O)c2n[nH]c3ncc(-c4ccc(C)c(C)c4)cc23)c1F", 3),
    ("CCCS(=O)(=O)Nc1ccc(F)c(C(=O)c2n[nH]c3ncc(-c4cccc(O)c4)cc23)c1F", 3),
    ("CCCS(=O)(=O)Nc1ccc(F)c(C(=O)c2n[nH]c3ncc(-c4ccccc4C)cc23)c1F", 10),
    ("CCCS(=O)(=O)Nc1ccc(F)c(C(=O)c2n[nH]c3ncc(-c4ccc(C)cc4)cc23)c1F", 10),
]

Kindly give each listed record's Selectivity ratio.
1. CCCS(=O)(=O)Nc1ccc(F)c(C(=O)c2n[nH]c3ncc(-c4ccc(Cl)c(Cl)c4)cc23)c1F
2. CCCS(=O)(=O)Nc1ccc(F)c(C(=O)c2n[nH]c3ncc(-c4cccc([N+](=O)[O-])c4)cc23)c1F
3. CCCS(=O)(=O)Nc1ccc(F)c(C(=O)c2n[nH]c3ncc(-c4ccccc4Cl)cc23)c1F

1. 10
2. 3
3. 10

###

Species: Homo sapiens
Assay Method Text: Selectivity index, ratio of inhibition of full length human JNK1 (M1 to Q384 residues) expressed in mammalian expression system assessed as residual percent of control binding at 100 nM relative to control to inhibition of partial length human MKK4 (S84 to D399 residues) expressed in mammalian expression system assessed as residual percent of control binding at 100 nM relative to control
Measured Quantity: Selectivity ratio
Answers are plain numbers.

Some molecules with known Selectivity ratio results, for comparison:
# Compound Structure, Selectivity ratio
records = [
    ("CCCS(=O)(=O)Nc1ccc(F)c(C(=O)c2n[nH]c3ncc(-c4cccc(C)c4)cc23)c1F", 3),
    ("CCCS(=O)(=O)Nc1ccc(F)c(C(=O)c2n[nH]c3ncc(-c4ccc([N+](=O)[O-])cc4)cc23)c1F", 10),
    ("CCCS(=O)(=O)Nc1ccc(F)c(C(=O)c2n[nH]c3ncc(-c4ccc(Cl)cc4Cl)cc23)c1F", 3),
    ("CCCS(=O)(=O)Nc1ccc(F)c(C(=O)c2n[nH]c3ncc(-c4ccccc4)cc23)c1F", 10),
]

Below: the item to evaluate.
Record request: Selectivity ratio value, item `CCCS(=O)(=O)Nc1ccc(F)c(C(=O)c2n[nH]c3ncc(-c4ccccc4OC)cc23)c1F`
10

###

Organism: Homo sapiens
Assay Method Text: Selectivity index, ratio of inhibition of full length human JNK1 (M1 to Q384 residues) expressed in mammalian expression system assessed as residual percent of control binding at 100 nM relative to control to inhibition of partial length human MKK4 (S84 to D399 residues) expressed in mammalian expression system assessed as residual percent of control binding at 100 nM relative to control
I'd appreciate it if you could supply Selectivity ratio values for the items below.

Some compounds with known Selectivity ratio results, for comparison:
# Compound Structure, Selectivity ratio
data = [
    ("CCCS(=O)(=O)Nc1ccc(F)c(C(=O)c2n[nH]c3ncc(-c4cccc(F)c4)cc23)c1F", 10),
    ("CCCS(=O)(=O)Nc1ccc(F)c(C(=O)c2n[nH]c3ncc(-c4ccc(N)cc4)cc23)c1F", "> 30"),
    ("CCCS(=O)(=O)Nc1ccc(F)c(NC(=O)c2n[nH]c3ncc(-c4ccc(Cl)cc4)cc23)c1F", "< 3"),
]

Below: the item to evaluate.
Record request: Selectivity ratio value, item `CCCS(=O)(=O)Nc1ccc(F)c(C(=O)c2n[nH]c3ncc(-c4ccc(F)cc4)cc23)c1F`
> 30
